# method-notes: qHTS of pediatric cancer cell lines to identify multiple opportunities for drug repurposing: Confirmatory screen for DAOY cells (AID 1347114); further: nearly all actives have a fitted effect of over 65% in size; further: potency means the concentration at half of the fitted maximal effect
# condition-context: DAOY medulloblastoma cells viability, cytotoxicity qHTS; series mostly up to 45.9 µM
Records with an inconclusive call do not appear. Activity calls are given as the source filed them. The call rests on the fitted dose curve; in most records, active means well fitted cell-killing curve with a large enough effect; inconclusive means small, poorly fitted or top-dose-only effect; inactive means no such curve, though single readings can be large or run the other way.

molecule	Potency
CC(C)CC(N(C)C)C1(c2ccc(Cl)cc2)CCC1 (centres undefined)	inactive
N[C@@H](Cc1ccc(N(CCCl)CCCl)cc1)C(=O)O	23.3 µM (active)
Cc1sc2c(c1C)C(c1ccc(Cl)cc1)=N[C@@H](CC(=O)OC(C)(C)C)c1nnc(C)n1-2	inactive
O=P1(NCCCl)OCCCN1CCCl (centres undefined)	inactive

====

# Test system: astro
# method-notes: Drug repurposing screens with cells derived from glioblastoma tumor samples (AID 1345199); further: nearly all actives have a fitted effect of over 40% in size; further: potency means the concentration at half of the fitted maximal effect
# condition-context: viability, ATP luminescence, 48 h; series mostly up to 45.9 µM
Results filed as inconclusive are left out. Activity calls are given as the source filed them. Calls follow the shape of the dose curve; as a rule, active = well fitted inhibition curve with a large enough effect; inconclusive = small, poorly fitted or top-dose-only effect; inactive = flat fitted curve, though single readings scatter.
parameter: Potency

molecule	parameter	observed-measurement
CN(C)CCc1ccc(O)cc1	Potency	inactive
CC(C)(N)Cc1ccc(Cl)cc1	Potency	inactive
c1ccc2c(c1)OCC(C1=NCCN1)O2 (stereo unspecified)	Potency	15.8 µM (active)
NCCc1cc(O)c(O)cc1O	Potency	inactive
O=[N+]([O-])c1cc([As](=O)(O)O)ccc1O	Potency	inactive

Quick batch: Potency for everything below.
1. CC1OC(C)OC(C)O1 (stereo unspecified)
2. N[C@@H]1C[C@H]1c1ccccc1
3. CCC(C(N)=O)N1CCCC1=O (stereo unspecified)
4. Fc1ccc(C(OCCN2CCN(CCCc3ccccc3)CC2)c2ccc(F)cc2)cc1

1: inactive; 2: inactive; 3: inactive; 4: 22.4 µM (active)

List reported Potency for each of these molecules:
1. C#CCOC(C(=O)OCCN(C)C)(c1ccccc1)c1ccccc1
2. CC(CCc1ccccc1)NC(C)C(O)c1ccc(O)cc1 (stereo unspecified)
3. c1ccc(C2CC2)c(OCC2=NCCN2)c1

1: inactive; 2: inactive; 3: inactive

Would you mind giving Potency for every molecule in the list below?
1. CCN(CC)CCOC(=O)C(O)(c1ccccc1)c1ccccc1
2. Cc1cccc(C)c1NC1=NCCCS1
3. Oc1cc(Cl)ccc1Oc1ccc(Cl)cc1Cl
4. FC(F)(F)c1cccc(C2=CCN(CCc3ccc4ccccc4c3)CC2)c1
5. C=C1C[C@@H]2[C@H](CC[C@]3(C)C(=O)CC[C@@H]23)[C@@]2(C)C=CC(=O)C=C12
6. Cc1ccc(S(=O)(=O)N[C@@H](CCCCN)C(=O)CCl)cc1

["inactive", "inactive", "28.2 µM (active)", "inactive", "inactive", "inactive"]

====

# method-notes: qHTS drug screen for cell cycle checkpoint inhibitors in PARPi-resistant BRCA-mutant ovarian cancer cell lines. (AID 1963452)
# condition-context: PEO1/OlaR viability, CellTiter-Glo luminescence, 96 h; measured here: PEO4 Z-AUC; stronger effect = lower value
parameter: Z-AUC
Numbers only.

compound	Z-AUC
CC(C)CC(N(C)C)C1(c2ccc(Cl)cc2)CCC1 (stereo not drawn)	0.647

Provide the reported Z-AUC of each entry below, same order.
1. COC[C@H]1OC(=O)c2coc3c2[C@@]1(C)C1=C(C3=O)C2CCC(=O)[C@@]2(C)C[C@H]1OC(C)=O (stereo partly drawn)
2. CNC(=O)c1ccc(N2C(=S)N(c3ccc(C#N)c(C(F)(F)F)c3)C(=O)C23CCC3)cc1F
3. C=C1C[C@@H]2[C@H](CC[C@]3(C)C(=O)CC[C@@H]23)[C@@]2(C)C=CC(=O)C=C12

[0.563, 1.39, 1.01]

Take each entry in turn and give its Z-AUC.
1. C=C(C)[C@H]1Cc2c(ccc3c2O[C@@H]2COc4cc(OC)c(OC)cc4[C@@H]2C3=O)O1
2. N[C@@H]1C[C@H]1c1ccccc1
3. C[C@@H]1O[C@@H](O[C@H]2C[C@@H](O)[C@]3(CO)[C@H]4[C@H](O)C[C@]5(C)[C@@H](C6=CC(=O)OC6)CC[C@]5(O)[C@@H]4CC[C@]3(O)C2)[C@H](O)[C@H](O)[C@H]1O
4. O=c1[nH]c2ccccc2n1CCCN1CCC(n2c(=O)[nH]c3cc(Cl)ccc32)CC1

-1.87
0.895
-1.63
0.827

====

Please respond with reported max response for every item in the list.
# Tested on: HEK293
# method-notes: Cytotoxic Profiling of Annotated Libraries Using Quantitative High-Throughput Screening (AID 1296008); further: on the % scale 0 is the no-effect control and ±100 the full control effect; nearly all actives have a fitted effect of over 60% in size
# condition-context: Five cell lines viability, CellTiter-Glo ATP luminescence, 48-72 h; stronger effect = lower value
Results filed as inconclusive are left out.
One number for each entry, in %.

compound	max response / %
Cc1cccc(C)c1NC(=O)CN1CCCC1=O	2.15
Cn1c(CCCC(=O)O)nc2cc(N(CCCl)CCCl)ccc21	1.54
CCC(C(N)=O)N1CCCC1=O (stereo not drawn)	-1.93
CN(C)CCN(C)CCc1ccc(Cl)c(Cl)c1	0.598
COc1ccc(C(CN(C)C)C2(O)CCCCC2)cc1 (stereo not drawn)	1.04

Value sought for every listed compound: max response.
1. NCC1(CC(=O)O)CCCCC1
2. Clc1cccc(N2CCNCC2)c1
3. CC[N+](CC)(CC)CC
4. CC(CCc1ccccc1)NC(C)C(O)c1ccc(O)cc1 (stereo not drawn)
5. COc1ccc(C(=O)c2c(C)n(CCN3CCOCC3)c3ccccc23)cc1
6. N#CC(C#N)=Cc1ccc(O)c(O)c1
7. C=CCN1CC[C@]23c4c5ccc(O)c4O[C@H]2C(=O)CC[C@@]3(O)[C@H]1C5
8. O=P1(NCCCl)OCCCN1CCCl (stereo not drawn)

[4.46, 1.3, -5.65, -17.5, -9.73, -18.8, -4.65, 3.55]

====

# measured-target: D(1A) dopamine receptor (Homo sapiens) (UniProt P21728)
# Sequence (P21728 whole entry, looked up): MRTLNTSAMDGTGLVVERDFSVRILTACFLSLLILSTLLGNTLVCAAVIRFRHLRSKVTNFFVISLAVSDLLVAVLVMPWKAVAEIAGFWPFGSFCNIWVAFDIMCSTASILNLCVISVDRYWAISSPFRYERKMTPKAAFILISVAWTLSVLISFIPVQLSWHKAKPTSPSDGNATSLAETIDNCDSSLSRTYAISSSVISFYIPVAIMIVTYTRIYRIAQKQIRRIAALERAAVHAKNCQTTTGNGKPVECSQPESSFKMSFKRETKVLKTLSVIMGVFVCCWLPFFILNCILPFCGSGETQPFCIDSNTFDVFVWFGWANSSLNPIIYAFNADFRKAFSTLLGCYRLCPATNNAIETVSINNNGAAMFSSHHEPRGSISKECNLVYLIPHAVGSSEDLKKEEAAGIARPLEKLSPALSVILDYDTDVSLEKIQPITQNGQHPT
# method-notes: HTS Assay for Allosteric Agonists of the Human D1 Dopamine Receptor: Primary Screen for Agonists (AID 488981); further: 0% is about no effect
# condition-context: Inducible HEK293 T-REx D1 cells, calcium-flux fluorescence, 180 s kinetic; series mostly up to 41.8 µM
Results filed as inconclusive are left out. Calls of active or inactive are those of the source. Calls follow the shape of the dose curve; as a rule, active = well fitted activation curve with a large enough effect; inconclusive = small, poorly fitted or top-dose-only effect; inactive = flat fitted curve, though single readings scatter.
Answer with one of the outcomes active, inactive

molecule	category
CN1C[C@H](CNC(=O)OCc2ccccc2)C[C@@H]2c3cccc4c3c(cn4C)C[C@H]21	inactive
Fc1ccc(C(OCCN2CCN(CCCc3ccccc3)CC2)c2ccc(F)cc2)cc1	inactive
COc1ccc(C(CN(C)C)C2(O)CCCCC2)cc1 (stereo not drawn)	inactive
CC[C@@H](CO)NC(=O)[C@@H]1C=C2c3cccc4c3c(cn4C)C[C@H]2N(C)C1	inactive
CCC1(C2=NCCN2)Cc2ccccc2O1 (stereo not drawn)	inactive
Cc1ccc(S(=O)(=O)N[C@@H](CCCCN)C(=O)CCl)cc1	inactive
c1ccc(C2CC2)c(OCC2=NCCN2)c1	inactive
CC[C@@H](CO)NC(=O)[C@@H]1C=C2c3cccc4[nH]cc(c34)C[C@H]2N(C)C1	inactive

In the following, a different molecule is considered.
Fill in: this test's call for CNCC(O)c1ccc(O)cc1 (stereo not drawn) is ___
inactive

====

# condition-context: Ebola virus entry assay, blue channel fluorescence
The source made the active and inactive calls.
Output constraint: value belongs to active, inactive

// return assay outcome for CC(=O)Nc1nnc(S(N)(=O)=O)s1
inactive

Assay result, entry N[C@@H](C(=O)N[C@@H]1C(=O)N2C(C(=O)O)=C(Cl)CS[C@H]12)c1ccccc1 — outcome?
inactive

In this assay, the call recorded for CCCCCCCCCCCCCCCC[N+](C)(C)CC was what?
active

For CC(CN1c2ccccc2Sc2ccccc21)N(C)C (stereo unspecified) , which call appears in the assay record?
active

Field: outcome | Entry: CC(C)(N)Cc1ccc(Cl)cc1
inactive

What did the test return for O=C1[C@H](CC[C@H](O)c2ccc(F)cc2)[C@@H](c2ccc(O)cc2)N1c1ccc(F)cc1 ?
active

Tell me the assay call for CCOC(=O)c1ncn2c1CN(C)C(=O)c1cc(F)ccc1-2 please.
inactive

Returns: the outcome recorded for CO[C@]12CC[C@@]3(C[C@@H]1[C@](C)(O)C(C)(C)C)[C@@H]1Cc4ccc(O)c5c4[C@@]3(CCN1CC1CC1)[C@H]2O5 in this assay.
active

====

# measured-target: Cytochrome P450 2C19 (Homo sapiens)
# method-notes: qHTS Assay for Inhibitors and Substrates of Cytochrome P450 2C19 (AID 899); further: nearly all actives have a fitted effect of over 60% in size
# condition-context: recombinant CYP2C19, luciferin-H EGE luminescence; series mostly up to 57.1 µM
Results filed as inconclusive are left out. Activity calls are given as the source filed them. The call rests on the fitted dose curve; in most records, active means well fitted inhibition curve with a large enough effect; inconclusive means small, poorly fitted or top-dose-only effect; inactive means no such curve, though single readings can be large or run the other way.
Respond using exactly one of the listed classes: Yes = active, No = inactive

C=C(C)[C@H]1Cc2c(ccc3c2O[C@@H]2COc4cc(OC)c(OC)cc4[C@@H]2C3=O)O1 Yes
COc1ccccc1N1CCNCC1 No
CCCN(CCC)CCc1cccc2c1CC(=O)N2 No

Attention now turns to another entry.
In this assay, the call recorded for N#CC(C#N)=Cc1ccc(O)c(O)c1 was what?
No

Just for reference, PubChem BioAssay (NCATS) is where these values come from.
